# system.under.test: SARS-CoV-2 spike (S) protein (SARS-CoV-2, UniProt P0DTC2 14-1208)
reported.property: koff (s⁻¹)

binder="antibody 297 (antibody, V domains shown) VH: QVQLVESGGGVVQPGRSLRLSCAASGFTFSSYAMHWVRQAPGKGLEWVAVISYDGSNKYYADSVKGRFTISRDNSKNTLYLQMNSLRAEDTAVYYCARSFRGGYYYGMDVWGQGTTVTVSS VL: DIQLTQSPSFLSASVGDRVTITCRASQGISSYLAWYQQKPGKAPKLLIYAASTLQSGVPSRFSGSGSGTEFTLTISSLQPEDFATYYCQQLNSYPLFTFGPGTKVDIK" reported_property=koff assay_result=0.000127
binder="antibody 357 (antibody, V domains shown) VH: QVQLVQSGAEVKKPGSSVKVSCKASGGTFSSYAISWVRQAPGQGLEWMGRIIPILGIANYAQKFQGRVTITADKSTSTAYMELSSLRSEDTAVYYCARGPIAVAGIGPWFDPWGQGTLVTVSS VL: QSVLTQPPSVSAAPGQKVTISCSGSSSNIGNNYVSWYQQLPGTAPKLLIYDNNKRPSGIPDRFSGSKSGTSATLGITGLQTGDEADYYCGTWDSSLSAVVFGGGTKLTVL" reported_property=koff assay_result=6.53e-05
binder="antibody 370 (antibody, V domains shown) VH: QVQLVESGGGVVPPGRSLSLPCAASGFTFSAYAMHWLRQAPGKGLEWVAVISYDGTVKYVADSVRGRFTISRDNSNNTLYLQMTSLRSDDTAVYYCARDLGALAAAPTVYFVHWGQGTLVTVSS VL: SYVLTQPPSVSVAPGKTATITCAGEDIGRKSVHWYQQKPGQAPVLVIFYYSDRPSGIPDRFSGSVSGNTATLTIGRVEAGDEADYFCQVWDRTTNHVIFGGGTKVTVL" reported_property=koff assay_result=0.000986
